Entry source: paper PMC6568410

# Tested on: L929 mouse fibroblast cells
# METHOD_DESCRIPTION: Cytotoxicity, MTT assay
# Assay type: cell-based
# TEST_CONTEXT: 800 µM, L929 cells, 24 h, Exp. 1
Where no end group is shown, it is not given here.
ASSAY_READOUT: Cell viability (%)
Numbers only, in %.

Guide cases for Cell viability (%), answers given:
substance="FIGAIARLLSK [BmKn-22]" test_result=108.407
substance="FIGAIARLLS [BmKn-23]" test_result=80.383
substance="FIGAIARLL [BmKn-24]" test_result=84.274

For every record below, what is its Cell viability (%)?
1. FIGAIAR [BmKn-26]
2. FIGAIARLLSKI [BmKn-21]
3. FIGAIARLLSKIF [BmKn-2, reference compound]
4. FIGAIARL [BmKn-25]

Response line:
85.233
1.974
2.236
82.909
